Data provenance: paper PMC12030706

PROTOCOL_DESCRIPTION: Ex vivo biodistribution in PC-3 tumor-bearing mice
DETAILS: mouse, in vivo, Uptake in blood, 4 h post-injection
READOUT_LABEL: tissue uptake at 4 h (%ID/g)

CC(C)C[C@@H](CN1CSC[C@H]1C(N)=O)NC(=O)[C@H](Cc1cnc[nH]1)NC(=O)CN(C)C(=O)[C@@H](NC(=O)[C@H](C)NC(=O)[C@H](Cc1c[nH]c2ccccc12)NC(=O)[C@H](CCC(N)=O)NC(=O)[C@@H](Cc1ccccc1)NC(=O)CN1CCC(NC(=O)CN2CCN(CC(=O)O)CCN(CC(=O)O)CCN(CC(=O)O)CC2)CC1)C(C)C [[^177Lu]Lu-TacsBOMB5, metal not drawn]
0.85

---

Entries and their tissue uptake at 1 h values follow.
PROTOCOL_DESCRIPTION: Ex vivo biodistribution in PC-3 tumor-bearing mice
DETAILS: mouse, adrenal glands, 100 ug, Uptake in adrenal glands, 1 h blocked (co-injected with 100 µg [D-Phe6,Leu-NHEt13,des-Met14]Bombesin(6-14))
Numbered stars: 1 amine (or outer) side, 2 acyl side, 3 side chain; on linkers, the order of the positions; unused ones are H or OH. Square brackets hold non-standard residues; d marks the D form. Peptide text beside a SMILES is read from it. * marks the point of attachment. DOTA = O=C(O)CN1CCN(CC(=O)O)CCN(CC(=O)*)CCN(CC(=O)O)CC1; NMeH = CN[C@@H](Cc1c[nH]cn1)C(=O)O; X1 = O=C(CN1CCC(N[*:1])CC1)[*:2]; Tle = CC(C)(C)[C@H](N)C(=O)O; Thz = O=C(O)[C@@H]1CSCN1
READOUT_LABEL: tissue uptake at 1 h

CC(C)C[C@@H](CN1CSC[C@H]1C(N)=O)NC(=O)[C@H](Cc1cnc[nH]1)NC(=O)CN(C)C(=O)[C@@H](NC(=O)[C@H](C)NC(=O)[C@H](Cc1c[nH]c2ccccc12)NC(=O)[C@H](CCC(N)=O)NC(=O)[C@@H](Cc1ccccc1)NC(=O)CN1CCC(NC(=O)CN2CCN(CC(=O)O)CCN(CC(=O)O)CCN(CC(=O)O)CC2)CC1)C(C)C [[^177Lu]Lu-TacsBOMB5, metal not drawn]
0.17 %ID/g
CC(C)C[C@H](NC(=O)[C@H](Cc1cnc[nH]1)N(C)C(=O)CNC(=O)[C@@H](NC(=O)[C@H](C)NC(=O)[C@H](Cc1c[nH]c2ccccc12)NC(=O)[C@H](Cc1c[nH]cn1)NC(=O)[C@@H](Cc1ccccc1)NC(=O)CN1CCC(NC(=O)CN2CCN(CC(=O)O)CCN(CC(=O)O)CCN(CC(=O)O)CC2)CC1)C(C)(C)C)C(=O)N1CSC[C@H]1C(N)=O [[^177Lu]Lu-LW01142, metal not drawn] ({DOTA}-[X1][dF]HWA[Tle]G[NMeH]L[Thz]-NH2)
0.75 %ID/g
CC(C)C[C@H](NC(=O)[C@H](Cc1cnc[nH]1)N(C)C(=O)CNC(=O)[C@@H](NC(=O)[C@H](C)NC(=O)[C@H](Cc1c[nH]c2ccccc12)NC(=O)[C@H](CCC(N)=O)NC(=O)[C@@H](Cc1ccccc1)NC(=O)CN1CCC(NC(=O)CN2CCN(CC(=O)O)CCN(CC(=O)O)CCN(CC(=O)O)CC2)CC1)C(C)(C)C)C(=O)N1CSC[C@H]1C(N)=O [[^177Lu]Lu-LW01110, metal not drawn]
0.54 %ID/g

---

PROTOCOL_DESCRIPTION: Ex vivo biodistribution in PC-3 tumor-bearing mice
DETAILS: mouse, heart, Uptake in heart, 1 h post-injection
Numbered stars: 1 amine (or outer) side, 2 acyl side, 3 side chain; on linkers, the order of the positions; unused ones are H or OH. Square brackets hold non-standard residues; d marks the D form. Peptide text beside a SMILES is read from it. * marks the point of attachment. DOTA = O=C(O)CN1CCN(CC(=O)O)CCN(CC(=O)*)CCN(CC(=O)O)CC1; NMeH = CN[C@@H](Cc1c[nH]cn1)C(=O)O; X1 = O=C(CN1CCC(N[*:1])CC1)[*:2]; Tle = CC(C)(C)[C@H](N)C(=O)O; Thz = O=C(O)[C@@H]1CSCN1
READOUT_LABEL: tissue uptake at 1 h (%ID/g)

CC(C)C[C@H](NC(=O)[C@H](Cc1cnc[nH]1)N(C)C(=O)CNC(=O)[C@@H](NC(=O)[C@H](C)NC(=O)[C@H](Cc1c[nH]c2ccccc12)NC(=O)[C@H](CCC(N)=O)NC(=O)[C@@H](Cc1ccccc1)NC(=O)CN1CCC(NC(=O)CN2CCN(CC(=O)O)CCN(CC(=O)O)CCN(CC(=O)O)CC2)CC1)C(C)(C)C)C(=O)N1CSC[C@H]1C(N)=O [[^177Lu]Lu-LW01110, metal not drawn]
0.22
CC(C)C[C@H](NC(=O)[C@H](Cc1cnc[nH]1)N(C)C(=O)CNC(=O)[C@@H](NC(=O)[C@H](C)NC(=O)[C@H](Cc1c[nH]c2ccccc12)NC(=O)[C@H](Cc1c[nH]cn1)NC(=O)[C@@H](Cc1ccccc1)NC(=O)CN1CCC(NC(=O)CN2CCN(CC(=O)O)CCN(CC(=O)O)CCN(CC(=O)O)CC2)CC1)C(C)(C)C)C(=O)N1CSC[C@H]1C(N)=O [[^177Lu]Lu-LW01142, metal not drawn] ({DOTA}-[X1][dF]HWA[Tle]G[NMeH]L[Thz]-NH2)
0.45
CC(C)C[C@@H](CN1CSC[C@H]1C(N)=O)NC(=O)[C@H](Cc1cnc[nH]1)NC(=O)CN(C)C(=O)[C@@H](NC(=O)[C@H](C)NC(=O)[C@H](Cc1c[nH]c2ccccc12)NC(=O)[C@H](CCC(N)=O)NC(=O)[C@@H](Cc1ccccc1)NC(=O)CN1CCC(NC(=O)CN2CCN(CC(=O)O)CCN(CC(=O)O)CCN(CC(=O)O)CC2)CC1)C(C)C [[^177Lu]Lu-TacsBOMB5, metal not drawn]
0.45

---

Entries and their tissue uptake at 120 h values follow.
PROTOCOL_DESCRIPTION: Ex vivo biodistribution in PC-3 tumor-bearing mice
DETAILS: mouse, heart, Uptake in heart, 120 h post-injection
Numbered stars: 1 amine (or outer) side, 2 acyl side, 3 side chain; on linkers, the order of the positions; unused ones are H or OH. Square brackets hold non-standard residues; d marks the D form. Peptide text beside a SMILES is read from it. * marks the point of attachment. DOTA = O=C(O)CN1CCN(CC(=O)O)CCN(CC(=O)*)CCN(CC(=O)O)CC1; NMeH = CN[C@@H](Cc1c[nH]cn1)C(=O)O; X1 = O=C(CN1CCC(N[*:1])CC1)[*:2]; Tle = CC(C)(C)[C@H](N)C(=O)O; Thz = O=C(O)[C@@H]1CSCN1
READOUT_LABEL: tissue uptake at 120 h (%ID/g)

CC(C)C[C@H](NC(=O)[C@H](Cc1cnc[nH]1)N(C)C(=O)CNC(=O)[C@@H](NC(=O)[C@H](C)NC(=O)[C@H](Cc1c[nH]c2ccccc12)NC(=O)[C@H](CCC(N)=O)NC(=O)[C@@H](Cc1ccccc1)NC(=O)CN1CCC(NC(=O)CN2CCN(CC(=O)O)CCN(CC(=O)O)CCN(CC(=O)O)CC2)CC1)C(C)(C)C)C(=O)N1CSC[C@H]1C(N)=O [[^177Lu]Lu-LW01110, metal not drawn]
0.01
CC(C)C[C@@H](CN1CSC[C@H]1C(N)=O)NC(=O)[C@H](Cc1cnc[nH]1)NC(=O)CN(C)C(=O)[C@@H](NC(=O)[C@H](C)NC(=O)[C@H](Cc1c[nH]c2ccccc12)NC(=O)[C@H](CCC(N)=O)NC(=O)[C@@H](Cc1ccccc1)NC(=O)CN1CCC(NC(=O)CN2CCN(CC(=O)O)CCN(CC(=O)O)CCN(CC(=O)O)CC2)CC1)C(C)C [[^177Lu]Lu-TacsBOMB5, metal not drawn]
0.04
CC(C)C[C@H](NC(=O)[C@H](Cc1cnc[nH]1)N(C)C(=O)CNC(=O)[C@@H](NC(=O)[C@H](C)NC(=O)[C@H](Cc1c[nH]c2ccccc12)NC(=O)[C@H](Cc1c[nH]cn1)NC(=O)[C@@H](Cc1ccccc1)NC(=O)CN1CCC(NC(=O)CN2CCN(CC(=O)O)CCN(CC(=O)O)CCN(CC(=O)O)CC2)CC1)C(C)(C)C)C(=O)N1CSC[C@H]1C(N)=O [[^177Lu]Lu-LW01142, metal not drawn] ({DOTA}-[X1][dF]HWA[Tle]G[NMeH]L[Thz]-NH2)
0.01

---

PROTOCOL_DESCRIPTION: LogD7.4 measurement, shake flask method
Type: physicochemical
DETAILS: n-octanol/DPBS pH 7.4, n = 3
Numbered stars: 1 amine (or outer) side, 2 acyl side, 3 side chain; on linkers, the order of the positions; unused ones are H or OH. Square brackets hold non-standard residues; d marks the D form. Peptide text beside a SMILES is read from it. * marks the point of attachment. DOTA = O=C(O)CN1CCN(CC(=O)O)CCN(CC(=O)*)CCN(CC(=O)O)CC1; NMeH = CN[C@@H](Cc1c[nH]cn1)C(=O)O; X1 = O=C(CN1CCC(N[*:1])CC1)[*:2]; Tle = CC(C)(C)[C@H](N)C(=O)O; Thz = O=C(O)[C@@H]1CSCN1
READOUT_LABEL: logD

CC(C)C[C@H](NC(=O)[C@H](Cc1cnc[nH]1)N(C)C(=O)CNC(=O)[C@@H](NC(=O)[C@H](C)NC(=O)[C@H](Cc1c[nH]c2ccccc12)NC(=O)[C@H](CCC(N)=O)NC(=O)[C@@H](Cc1ccccc1)NC(=O)CN1CCC(NC(=O)CN2CCN(CC(=O)O)CCN(CC(=O)O)CCN(CC(=O)O)CC2)CC1)C(C)(C)C)C(=O)N1CSC[C@H]1C(N)=O [[^177Lu]Lu-LW01110, metal not drawn]
-2.76
CC(C)C[C@@H](CN1CSC[C@H]1C(N)=O)NC(=O)[C@H](Cc1cnc[nH]1)NC(=O)CN(C)C(=O)[C@@H](NC(=O)[C@H](C)NC(=O)[C@H](Cc1c[nH]c2ccccc12)NC(=O)[C@H](CCC(N)=O)NC(=O)[C@@H](Cc1ccccc1)NC(=O)CN1CCC(NC(=O)CN2CCN(CC(=O)O)CCN(CC(=O)O)CCN(CC(=O)O)CC2)CC1)C(C)C [[^177Lu]Lu-TacsBOMB5, metal not drawn]
-2.53
CC(C)C[C@H](NC(=O)[C@H](Cc1cnc[nH]1)N(C)C(=O)CNC(=O)[C@@H](NC(=O)[C@H](C)NC(=O)[C@H](Cc1c[nH]c2ccccc12)NC(=O)[C@H](Cc1c[nH]cn1)NC(=O)[C@@H](Cc1ccccc1)NC(=O)CN1CCC(NC(=O)CN2CCN(CC(=O)O)CCN(CC(=O)O)CCN(CC(=O)O)CC2)CC1)C(C)(C)C)C(=O)N1CSC[C@H]1C(N)=O [[^177Lu]Lu-LW01142, metal not drawn] ({DOTA}-[X1][dF]HWA[Tle]G[NMeH]L[Thz]-NH2)
-2.28
